experiment: Losartan bioanalysis: plasma and tumor levels (HPLC/FLU); conditions: male, FVB, mouse, tumor, subcutaneous, 40 mg/kg/day, Tumor 2 hr level, Day 19, Group 2: losartan via subcutaneous pump 40 mg/kg/day
Value type: concentration at 2 h (ng/mL)

entry_smiles=CCCCc1nc(Cl)c(CO)n1Cc1ccc(-c2ccccc2-c2nn[nH]n2)cc1 reported_measurement=56.1

* * *

test: Losartan bioanalysis: plasma and tumor levels (HPLC/FLU); conditions: male, FVB, mouse, tumor, subcutaneous, 40 mg/kg, Tumor 2 hr level, Day 14, Group 3: losartan subcutaneous injection without pump 40 mg/kg daily
Value type: concentration at 2 h

entry_smiles=CCCCc1nc(Cl)c(CO)n1Cc1ccc(-c2ccccc2-c2nn[nH]n2)cc1 value_type="concentration at 2 h" reported_measurement="163 ng/mL"

* * *

test: Losartan bioanalysis: plasma and tumor levels (HPLC/FLU); settings: male, FVB, mouse, plasma, subcutaneous, 40 mg/kg/day, Plasma 2 hr level, Day 19, Group 2: losartan via subcutaneous pump 40 mg/kg/day
Value type: concentration at 2 h (µg/mL)

entry_smiles=CCCCc1nc(Cl)c(CO)n1Cc1ccc(-c2ccccc2-c2nn[nH]n2)cc1 reported_measurement=0.37

* * *

assay: Losartan bioanalysis: plasma and tumor levels (HPLC/FLU); conditions: male, FVB, mouse, tumor, subcutaneous, 40 mg/kg, Tumor 6 hr level, Day 19, Group 3: losartan subcutaneous injection without pump 40 mg/kg daily
Value type: concentration at 6 h

entry_smiles=CCCCc1nc(Cl)c(CO)n1Cc1ccc(-c2ccccc2-c2nn[nH]n2)cc1 reported_measurement="54 ng/mL"

* * *

assay: Losartan bioanalysis: plasma and tumor levels (HPLC/FLU); conditions: male, FVB, mouse, tumor, subcutaneous, 40 mg/kg, Tumor 6 hr level, Day 14, Group 3: losartan subcutaneous injection without pump 40 mg/kg daily
Value type: concentration at 6 h (ng/mL)

entry_smiles=CCCCc1nc(Cl)c(CO)n1Cc1ccc(-c2ccccc2-c2nn[nH]n2)cc1 reported_measurement=21

* * *

assay: Losartan bioanalysis: plasma and tumor levels (HPLC/FLU); details: male, FVB, mouse, plasma, subcutaneous, 40 mg/kg/day, Plasma 6 hr level, Day 14, Group 2: losartan via subcutaneous pump 40 mg/kg/day
Value type: concentration at 6 h (ng/mL)

entry_smiles=CCCCc1nc(Cl)c(CO)n1Cc1ccc(-c2ccccc2-c2nn[nH]n2)cc1 value_type="concentration at 6 h" reported_measurement=304

* * *

test: Losartan bioanalysis: plasma and tumor levels (HPLC/FLU); conditions: male, FVB, mouse, plasma, subcutaneous, 40 mg/kg, Plasma 2 hr level, Day 14, Group 3: losartan subcutaneous injection without pump 40 mg/kg daily
Value type: concentration at 2 h (ng/mL)

entry_smiles=CCCCc1nc(Cl)c(CO)n1Cc1ccc(-c2ccccc2-c2nn[nH]n2)cc1 reported_measurement=423

* * *

assay: Losartan bioanalysis: plasma and tumor levels (HPLC/FLU); settings: male, FVB, mouse, plasma, subcutaneous, 40 mg/kg/day, Plasma 2 hr level, Day 14, Group 2: losartan via subcutaneous pump 40 mg/kg/day
Value type: concentration at 2 h

entry_smiles=CCCCc1nc(Cl)c(CO)n1Cc1ccc(-c2ccccc2-c2nn[nH]n2)cc1 reported_measurement="227 ng/mL"

* * *

experiment: Losartan bioanalysis: plasma and tumor levels (HPLC/FLU); conditions: male, FVB, mouse, tumor, subcutaneous, 40 mg/kg/day, Tumor 2 hr level, Day 14, Group 2: losartan via subcutaneous pump 40 mg/kg/day
Value type: concentration at 2 h (ng/mL)

entry_smiles=CCCCc1nc(Cl)c(CO)n1Cc1ccc(-c2ccccc2-c2nn[nH]n2)cc1 value_type="concentration at 2 h" reported_measurement=50

* * *

assay: Losartan bioanalysis: plasma and tumor levels (HPLC/FLU); details: male, FVB, mouse, plasma, subcutaneous, 40 mg/kg, Plasma 6 hr level, Day 19, Group 3: losartan subcutaneous injection without pump 40 mg/kg daily
Value type: concentration at 6 h (ng/mL)

compound="CCCCc1nc(Cl)c(CO)n1Cc1ccc(-c2ccccc2-c2nn[nH]n2)cc1 [losartan]" reported_measurement=28

* * *

experiment: Losartan bioanalysis: plasma and tumor levels (HPLC/FLU); details: male, FVB, mouse, plasma, subcutaneous, 40 mg/kg, Plasma 6 hr level, Day 14, Group 3: losartan subcutaneous injection without pump 40 mg/kg daily
Value type: concentration at 6 h (ng/mL)

compound="CCCCc1nc(Cl)c(CO)n1Cc1ccc(-c2ccccc2-c2nn[nH]n2)cc1 [losartan]" value_type="concentration at 6 h" reported_measurement=11

* * *

assay: Losartan bioanalysis: plasma and tumor levels (HPLC/FLU); settings: male, FVB, mouse, plasma, subcutaneous, 40 mg/kg, Plasma 2 hr level, Day 19, Group 3: losartan subcutaneous injection without pump 40 mg/kg daily
Value type: concentration at 2 h (ng/mL)

entry_smiles=CCCCc1nc(Cl)c(CO)n1Cc1ccc(-c2ccccc2-c2nn[nH]n2)cc1 value_type="concentration at 2 h" units=ng/mL reported_measurement=152

* * *

test: Losartan bioanalysis: plasma and tumor levels (HPLC/FLU); conditions: male, FVB, mouse, plasma, subcutaneous, 40 mg/kg/day, Plasma 6 hr level, Day 19, Group 2: losartan via subcutaneous pump 40 mg/kg/day
Value type: concentration at 6 h (ng/mL)

entry_smiles=CCCCc1nc(Cl)c(CO)n1Cc1ccc(-c2ccccc2-c2nn[nH]n2)cc1 value_type="concentration at 6 h" units=ng/mL reported_measurement=376

This collection of values is drawn from patent US20130287688A1.
